Molecular target: rat plasma DPP-IV (Rattus norvegicus)
Sequence (P14740 37-767 limits assumed): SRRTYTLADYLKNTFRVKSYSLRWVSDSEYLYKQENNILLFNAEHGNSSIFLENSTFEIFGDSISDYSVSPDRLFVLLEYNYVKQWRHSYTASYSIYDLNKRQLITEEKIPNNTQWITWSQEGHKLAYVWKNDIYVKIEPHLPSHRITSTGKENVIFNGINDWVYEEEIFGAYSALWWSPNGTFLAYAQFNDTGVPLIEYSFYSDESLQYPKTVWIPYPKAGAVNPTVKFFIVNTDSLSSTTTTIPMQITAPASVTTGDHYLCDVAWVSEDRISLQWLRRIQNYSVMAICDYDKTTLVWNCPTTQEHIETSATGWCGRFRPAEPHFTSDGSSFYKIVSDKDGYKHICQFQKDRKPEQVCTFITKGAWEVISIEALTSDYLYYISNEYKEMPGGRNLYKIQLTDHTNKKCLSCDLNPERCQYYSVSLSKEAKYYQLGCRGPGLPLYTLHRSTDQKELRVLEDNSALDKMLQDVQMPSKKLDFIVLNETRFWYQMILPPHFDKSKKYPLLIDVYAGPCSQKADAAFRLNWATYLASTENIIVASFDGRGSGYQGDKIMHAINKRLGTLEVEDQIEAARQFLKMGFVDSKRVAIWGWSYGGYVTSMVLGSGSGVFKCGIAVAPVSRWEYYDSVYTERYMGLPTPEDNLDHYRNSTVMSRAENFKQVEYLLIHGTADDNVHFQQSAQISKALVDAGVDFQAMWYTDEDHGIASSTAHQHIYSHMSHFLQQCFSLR
Assay: DPP-IV inhibition in rat plasma
Assay Metric: IC50 (nM)
The figure you give is taken to be in nM; do not add the unit.

Prompt: # return recorded IC50 for entry N#C[C@@H]1CCCN1C(=O)CNC1C2CC3CC1CC(O)(C3)C2 (stereo partly shown)
Response: 12

====

Target: human plasma DPP-IV (Homo sapiens, UniProt P27487)
Sequence (P27487 39-766 limits assumed): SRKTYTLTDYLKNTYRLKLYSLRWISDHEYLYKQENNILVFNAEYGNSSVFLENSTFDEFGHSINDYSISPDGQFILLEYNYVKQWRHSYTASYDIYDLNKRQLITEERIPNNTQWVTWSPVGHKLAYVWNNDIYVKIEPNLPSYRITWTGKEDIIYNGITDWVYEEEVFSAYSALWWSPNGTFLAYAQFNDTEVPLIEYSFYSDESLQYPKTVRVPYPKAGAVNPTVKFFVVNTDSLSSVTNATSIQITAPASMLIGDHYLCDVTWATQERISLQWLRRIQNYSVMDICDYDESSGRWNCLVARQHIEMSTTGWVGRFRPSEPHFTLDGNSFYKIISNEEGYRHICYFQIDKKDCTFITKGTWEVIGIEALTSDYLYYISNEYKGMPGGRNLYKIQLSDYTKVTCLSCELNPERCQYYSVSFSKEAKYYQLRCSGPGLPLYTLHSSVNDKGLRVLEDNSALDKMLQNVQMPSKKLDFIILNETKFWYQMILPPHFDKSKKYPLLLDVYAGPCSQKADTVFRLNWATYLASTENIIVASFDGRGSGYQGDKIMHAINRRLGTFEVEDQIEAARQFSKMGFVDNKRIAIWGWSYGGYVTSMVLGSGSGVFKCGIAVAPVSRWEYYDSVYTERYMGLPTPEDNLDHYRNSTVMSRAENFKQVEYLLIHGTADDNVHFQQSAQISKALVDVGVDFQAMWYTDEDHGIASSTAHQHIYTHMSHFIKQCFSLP
Test: DPP-IV inhibition in human plasma
Conditions: substrate H-Glycine-Proline-AMC, pH 7.8, room temperature, 8-point curve
Assay Metric: pIC50
Notebook: values listed as pIC50 are -log10 of the concentration (mol/L).

Prompt: # return recorded pIC50 for entry N#C[C@@H]1CCCN1C(=O)CNC1C2CC3CC1CC(O)(C3)C2 (stereo partly shown)
Response: 8.22
